# assaySystem: Estrogen receptor (Homo sapiens)
# testDescription: qHTS assay to identify small molecule agonists of the estrogen receptor alpha (ER-alpha) signaling pathway using the BG1 cell line (AID 743079); also: nearly all actives have a fitted effect of over 20% in size
# conditionParameters: BG1Luc4E2 cells, ERE-luciferase agonist, 22 h; series mostly up to 70.3 µM
Inconclusive results are not listed. Activity calls are given as the source filed them. Calls follow the shape of the dose curve; as a rule, active = well fitted activation curve with a large enough effect in the repeat runs; inconclusive = weak or mixed curves, or effect the other way; inactive = no such curve, though single readings can be large or run the other way.
Labels: t for active, f for inactive

[[record]]
compound = "O=C(Nc1ccccc1-c1ccc(Cl)cc1)c1cccnc1Cl"
answerlabel = "f"

[[record]]
compound = "OC[C@@H](O)[C@H]1O[C@@H]2O[C@@H](C(Cl)(Cl)Cl)O[C@@H]2[C@H]1O"
answerlabel = "f"

[[record]]
compound = "C[C@@H]([C@H](O)c1ccccc1)N(C)C"
answerlabel = "f"

[[record]]
compound = "CC(C)C[C@H](CN)CC(=O)O"
answerlabel = "t"

[[record]]
compound = "C[C@]12C=CC(=O)C=C1CC[C@@H]1[C@@H]2CC[C@]2(C)OC(=O)CC[C@@H]12"
answerlabel = "t"

[[record]]
compound = "CC(C)CCC(=O)O[C@H]1CC[C@H]2[C@@H]3CCC4=CC(=O)CC[C@]4(C)[C@H]3CC[C@]12C"
answerlabel = "t"

[[record]]
compound = "O=C(OCCN1CCCCC1)C(O)(c1ccccc1)c1ccccc1"
answerlabel = "f"

[[record]]
compound = "COC(=O)[C@@H]1[C@H]2CC[C@@H](C[C@H]1OC(=O)c1ccccc1)N2C"
answerlabel = "f"

[[record]]
compound = "CCC(C)(S(=O)(=O)CC)S(=O)(=O)CC"
answerlabel = "f"

[[record]]
compound = "COc1cc([C@@H]2c3cc4c(cc3[C@@H](O)[C@H]3COC(=O)[C@H]23)OCO4)cc(OC)c1O"
answerlabel = "f"

[[record]]
compound = "C[C@]12CC[C@H]3[C@@H](CCC4=C(O)C(=O)CC[C@@H]43)[C@@H]1CC[C@@H]2OC(=O)CCC1CCCC1"
answerlabel = "t"

[[record]]
compound = "CCC1(c2cnc[nH]2)Cc2ccccc2C1"
answerlabel = "f"

[[record]]
compound = "O=C(CS(=O)C(c1ccccc1)c1ccccc1)NO (configuration not stated)"
answerlabel = "f"

[[record]]
compound = "CCC1(CC)C(=O)NC(=O)N(C)C1=O"
answerlabel = "f"

[[record]]
compound = "COc1ccc2c(c1)C13CCCC[C@@H]1C(C2)N(C)CC3 (some centres not stated)"
answerlabel = "f"

[[record]]
compound = "O=C1OC2(c3cc(Br)c(O)cc3Oc3c2cc(Br)c(O)[c]3[Hg])c2ccccc21 (configuration not stated)"
answerlabel = "f"

[[record]]
compound = "CN(C)[C@H](Cc1ccccc1)c1ccccc1"
answerlabel = "f"

[[record]]
compound = "CCNCC(O)c1cccc(O)c1 (configuration not stated)"
answerlabel = "f"

[[record]]
compound = "C=CCN(C1=NCCN1)c1c(Cl)cccc1Cl"
answerlabel = "t"

[[record]]
compound = "CNC(C)C(O)c1ccc(O)cc1 (configuration not stated)"
answerlabel = "f"

[[record]]
compound = "NC(=O)CN1CC(O)CC1=O (configuration not stated)"
answerlabel = "f"

[[record]]
compound = "CNc1ccc(C(=O)CC(O)CCC(C)C2OC(=O)CC(O)CC(=O)CC(O)CC(O)CC(O)CC(O)CC3(O)CC(O)C(C(=O)OC)C(CC(O[C@@H]4O[C@H](C)[C@@H](O)[C@H](N)[C@@H]4O)/C=C/C=C/C=C/C=C/C=C/C=C/C=C/C2C)O3)cc1 (some centres not stated)"
answerlabel = "f"

[[record]]
compound = "CC(C)NC(C)Cc1ccc(I)cc1 (configuration not stated)"
answerlabel = "t"

[[record]]
compound = "O[C@H]1[C@H]2[C@H](O)CCCN2C[C@H]1O"
answerlabel = "f"

[[record]]
compound = "CC(=O)[C@@]1(O)CC[C@H]2[C@@H]3CCC4=CC(=O)CC[C@]4(C)C3(F)[C@@H](O)C[C@@]21C (some centres not stated)"
answerlabel = "f"

[[record]]
compound = "C[C@@H](Cc1ccccc1)NCCC(c1ccccc1)c1ccccc1"
answerlabel = "f"

[[record]]
compound = "O=C1CN=C(c2ccccc2)c2cc(Cl)ccc2N1"
answerlabel = "f"

